Experiment: Human HepG2 cell viability assay in 384 well format
Type: toxicity, cell-based
Design: dose 125 nL, time 70.5 hour; concentration not given beside the values
Conditions: HepG2 cells, read-out: Inhibition
As shown below, each of these molecules has a reported cytotoxicity at 70.5 h value.
MEASURED METRIC: cytotoxicity at 70.5 h (%)

[
  {
    "MOLECULE": "Cc1nc[nH]c1CN(Cc1ccc(F)cc1)C1CC(C)(C)NC(C)(C)C1",
    "MEASURED METRIC": "cytotoxicity at 70.5 h",
    "TEST VALUE": -2.59
  },
  {
    "MOLECULE": "O=C1C(NS(=O)(=O)c2ccc(F)cc2)CCN1Cc1ccccc1 (stereo unspecified)",
    "MEASURED METRIC": "cytotoxicity at 70.5 h",
    "TEST VALUE": -13.4
  },
  {
    "MOLECULE": "CC1(C)CN(C(=O)CC2CCC2)C[C@]1(C)O",
    "MEASURED METRIC": "cytotoxicity at 70.5 h",
    "TEST VALUE": -2.02
  },
  {
    "MOLECULE": "CC(OCC1CC1)C(=O)NCc1cccc(CN2CCN(C)CC2)c1 (stereo unspecified)",
    "MEASURED METRIC": "cytotoxicity at 70.5 h",
    "TEST VALUE": 5.66
  },
  {
    "MOLECULE": "Cc1ccc(CN2Cc3c(C(=O)N4CCOCC4)nn(C)c3C2)s1",
    "MEASURED METRIC": "cytotoxicity at 70.5 h",
    "TEST VALUE": -2.1
  },
  {
    "MOLECULE": "Cc1n[nH]c(C2CN(C(=O)c3csnn3)CCO2)n1 (stereo unspecified)",
    "MEASURED METRIC": "cytotoxicity at 70.5 h",
    "TEST VALUE": -11.9
  }
]

###

Assay: Human HepG2 cell viability assay in 384 well format
Format: toxicity, cell-based
Design: dose 125 nL, time 70.5 hour; concentration not given beside the values
Conditions: HepG2 cells, read-out: Inhibition

[
  {
    "MOLECULE": "O=C(c1ccco1)N1CCO[C@@H]2CNCC[C@@H]2C1",
    "cytotoxicity at 70.5 h [%]": 32.1
  },
  {
    "MOLECULE": "CC(C)Cc1nc(CN2CCOC(Cn3cccn3)C2)no1 (stereo unspecified)",
    "cytotoxicity at 70.5 h [%]": 15.4
  },
  {
    "MOLECULE": "Cc1cc(C2CCCN(CC(=O)Nc3nc4c(s3)CCC4)C2)n[nH]1 (stereo unspecified)",
    "cytotoxicity at 70.5 h [%]": 18.9
  },
  {
    "MOLECULE": "Cc1ccc(OCCCNC(=O)Cc2nc3ncccn3n2)cc1",
    "cytotoxicity at 70.5 h [%]": -13.7
  },
  {
    "MOLECULE": "CCc1ccc(CNc2cc(N3CCCC3CO)ncn2)s1 (stereo unspecified)",
    "cytotoxicity at 70.5 h [%]": 1.8
  },
  {
    "MOLECULE": "Cc1ccc2[nH]c(CN3CC[C@@H](N4CCN(C)CC4)[C@H](O)C3)c(C)c2c1",
    "cytotoxicity at 70.5 h [%]": -6.53
  }
]
